Examples of compounds with documented GI50 follow.
# Test system: 786-0
# Method: NCI tumour cell line growth inhibition, 48 h
Calls of active or inactive are those of the source. Rule as the data show it: active = GI50 up to about 1.1 µM and inactive = higher.

Measured GI50 for this entry COc1ccc(-c2cc(-c3ccc(Nc4ccnc5cc(Cl)ccc45)cc3)[nH]c(=O)c2C#N)c2ccccc12 on 786-0: 3.4 µM (inactive)

# value of GI50, 786-0, item COc1cc(C2SCC(=O)N2NC(=O)c2ccc(NC(C)=O)cc2)cc(OC)c1OC (stereo not given) = > 100 µM (inactive)

Bench note, 786-0: Cc1cccc(NC(=O)c2cccc([N+](=O)[O-])c2O)c1C , GI50 reads 37.7 µM (inactive)

Record O=C(/C=C/C(=O)N1CCCC1)N1CCCC1 ; system 786-0; GI50 = > 100 µM (inactive)

Note to self: GI50 of COc1c(C)c(C/C=C(\C)CCCCO[Si](C(C)C)(C(C)C)C(C)C)c(OC)c2ccccc12 with 786-0 was > 100 µM (inactive)

* * *

# System: RPMI-8226
# Method: NCI tumour cell line growth inhibition, 48 h
Calls of active or inactive are those of the source. No stated cut-off is given here; in the data, active = GI50 up to about 1.1 µM and inactive = higher.
Measured GI50 of individual entries

# annotated cases, reported GI50 shown
| Compound | Reported measurement |
| --- | --- |
| COc1cc2nc(-c3cccs3)nc(N3CCN(c4ccccc4)CC3)c2cc1OC | > 100 µM (inactive) |
| CN(C)CC1CC/C(=C\c2ccc3c(c2)OCO3)C1=O (stereo unspecified) | 1.85 µM (inactive) |
| O=C(O)CCC(=O)OCN1C(=O)C2C3C=CC(C2C1=O)C1C2C(=O)N(COC(=O)CCC(=O)O)C(=O)C2C31 (stereo unspecified) | 21.4 µM (inactive) |

Record Cc1ccc2c(c1)CC1(Cc3ccccc3C1=O)C2=O (stereo unspecified) ; system RPMI-8226; GI50 = > 100 µM (inactive)

GI50 of COc1ccc(/C=C2/N/C(=N\N=C/C(O)C(O)C(O)CO)NC2=O)cc1 (stereo unspecified) , assay on RPMI-8226, is > 100 µM (inactive)

Simply: O=C(Oc1ccc(Cl)cc1[N+](=O)[O-])c1ccccc1 , RPMI-8226, GI50 = 91.4 µM (inactive)

* * *

# System: HT-29
# Method: NCI tumour cell line growth inhibition, 48 h
Active and inactive are the calls of the source. No stated cut-off is given here; in the data, active = GI50 up to about 1.1 µM and inactive = higher.
Readout name: GI50

// below: answered molecules
| Molecule | Reported measurement |
| --- | --- |
| CC(=O)N/C(=C\c1cccc([N+](=O)[O-])c1)c1nc2ccc3c(c2[nH]1)C(=O)c1ccccc1C3=O | > 100 µM (inactive) |
| CC(=O)Nc1cc2cc(N)ccc2oc1=O | > 100 µM (inactive) |
| Cn1cc2ccccc2c1-c1nc(F)nc(OCC(=O)[C@H]2CCC3[C@@H]4CCC5=CC(=O)CC[C@]5(C)C4[C@@H](O)C[C@@]32C)n1 (stereo partly specified) | 21.6 µM (inactive) |
| CN1CC[N+](C)=C1c1ccccc1 | > 100 µM (inactive) |
| COC(=O)[C@]1(C)CCC[C@]2(C)C3CC4OOC3(C=C4C(C)(C)O)CCC21 (stereo partly specified) | 22.6 µM (inactive) |

// sample O=[N+]([O-])c1ccc(/C(=N/c2ccccc2)SS/C(=N\c2ccccc2)c2ccc([N+](=O)[O-])o2)o1 , its GI50 was 1.35 µM (inactive)

What the record says about CCOC(=O)Cn1c(=O)ccn(COCCO)c1=O : GI50 is > 100 µM (inactive)

// GI50 value for CCOC(=O)c1cc(=O)n(C)c(=O)n1C : > 100 µM (inactive)

The molecule CCOC(=O)N1CCC2(CC1)C[C@](Sc1ccccc1)(C(C)=O)[C@H](C)O2 showed GI50 equal to > 100 µM (inactive)

According to the records, this molecule O=C1NCCCNCCCNCCCNC(=O)c2cccc1n2 displays GI50 of > 100 µM (inactive)

What the record says about CCc1ccccc1/N=N/C(=O)NNc1ccccc1CC : GI50 is 24 µM (inactive)

Query O=C(O)CNc1ccc2c(c1)Cc1cc(Br)ccc1-2 yields GI50 of 27.1 µM (inactive)

Entry O=C(NC(CS)C(=O)O)c1c2ccccc2nc2ccccc12 (stereo unspecified) — recorded GI50 = 14.5 µM (inactive)

Briefly, GI50 measured for O=C1c2ccccc2C(=O)c2c(NCC3CO3)ccc(NCC3CO3)c21 (stereo unspecified) : 1.88 µM (inactive)

* * *

# System: SK-MEL-5
# Method: NCI tumour cell line growth inhibition, 48 h
The source made the active and inactive calls. Cut-off read from the data, not from the text of the source: active = GI50 up to about 1.1 µM and inactive = higher.
Mark one answer only. Choices: yes (1) = active, no (0) = inactive

| Compound | Category |
| --- | --- |
| O=[N+]([O-])c1cc(/C=N/C23CC4CC(CC(C4)C2)C3)ccc1Cl | no (0) |
| CCN(CC)C(=S)SCC(=O)Nc1nc2c(s1)CCCC2 | no (0) |
| CS[C@]12C(=O)C[C@@]3(C)[C@@H](CC[C@]3(O)C(=O)CO)[C@@H]1CCC1=CC(=O)CC[C@@]12C | no (0) |

// outcome(item) with item = O=C1CC(c2ccc(O)cc2)C2(O1)C(=O)OC(C(O)CO)C2O (stereo not given)
no (0)

Record lookup: outcome of this test for O=C(O)c1cc2c(cc1CC(Cc1ccc3c(c1)CCCC3)C(=O)O)CCCC2 (stereo not given) ?
no (0)

Which outcome did this test record for the compound C[Si](C)(C)C(Sc1ccccc1)(Sc1ccccc1)Sc1ccccc1 ?
no (0)

Record lookup: outcome of this test for COc1ccc(C2Oc3cc(OC)c(OC)cc3C2CCl)cc1OC (stereo not given) ?
no (0)

* * *

# Test system: CAKI-1
# Method: NCI tumour cell line growth inhibition, 48 h
Activity calls are given as the source filed them. No stated cut-off is given here; in the data, active = GI50 up to about 1.1 µM and inactive = higher.
Readout name: GI50

| Molecule | GI50 |
| --- | --- |
| CNC(=S)NC(=S)N(C)C | > 100 µM (inactive) |
| CCOP(=O)(OCC)C(F)(F)CC1CCCCC1 | > 10 µM (inactive) |
| CO/N=C1\CC(NC(=O)C(F)(F)F)c2ccsc21 (stereo unspecified) | > 100 µM (inactive) |
| Brc1ccc2[nH]c3c(C4=NCCC4)nccc3c2c1 | 19.6 µM (inactive) |
| COC(=O)C(Cc1c(C2Nc3ccccc3C2CC(NC(C)=O)C(=O)OC)[nH]c2ccccc12)NC(C)=O (stereo unspecified) | > 100 µM (inactive) |

Summary for this molecule, COC(=O)[C@]12CCC(C)(C)C[C@H]1C1=CC[C@@H]3[C@@]4(C)CC[C@H](OC5OC(CO)C(O)C(O)C5OC5OC(CO)C(O)C(O)C5O)C(C)(C)[C@@H]4CC[C@@]3(C)[C@]1(C)CC2 (stereo partly specified) : GI50 is 8.81 µM (inactive)

For reference, reported GI50 for COC1=C(C(=O)OC(C)(C)C)C23CCCCC2(C(C(=O)OC(C)(C)C)=C(OC)C3C(=O)OC(C)(C)C)C1C(=O)OC(C)(C)C (stereo unspecified) stands at > 100 µM (inactive)

The molecule listed as COc1ccc(-c2cc(-c3ccccc3)nc(N)c2-c2ccc3ccccc3c2)cc1 shows GI50 equal to 3.46 µM (inactive)

* * *

# Test system: NCI-H460
# Method: NCI tumour cell line growth inhibition, 48 h
The source made the active and inactive calls. Cut-off read from the data, not from the text of the source: active = GI50 up to about 1.1 µM and inactive = higher.
Your answer must be one of the following: 1 = active, -1 = inactive

| Compound | Target of assay | Category |
| --- | --- | --- |
| CCC(/C(=N\Nc1c(Cl)cc(Cl)cc1Cl)c1ccccc1)n1ccnc1C (configuration not stated) | NCI-H460 | -1 |

Just curious, what result did COc1cc(/C=C2\C[C@H]3[C@@H]4CC=C5C[C@@H](O)CC[C@]5(C)[C@H]4CC[C@]3(C)C2=O)cc(OC)c1OC get here?
-1

What outcome does the record of this test show for COC(=O)[C@]1(C)CCC[C@@]2(C)C1CC[C@@]13C=C(C(C)C)[C@@H](CC1=O)CC23 (some centres not stated) ?
-1

Outcome? C=CCC(CCC(C)=O)(C(=O)OCC)C(=O)OCC
-1

Look up the recorded call for COc1cc(OC)c2nc(C)c(CCCl)c(Cl)c2c1 in this test.
-1

Entry Cc1cccc(NC(=O)c2cccc([N+](=O)[O-])c2O)c1C : call = ?
-1

For Clc1ncnc2c1nc(C#Cc1ccccc1)n2Cc1ccccc1 , what call appears in the results of this test?
-1

What call does the record list for Nc1nc(N)c2cc(-c3ccccc3)cnc2n1 ?
-1

So what was the verdict on Nc1ccc(-c2nc3cc(F)ccc3s2)cc1I in this test?
1

Identify the outcome logged in this assay for the compound shown: O=C(O)[C@H](Cc1ccccc1)NCCN1CCC[C@H]1C(=O)O
-1

Any idea what this test logged for C=CCNC(=S)N/N=C1\C(=O)N(CN2CCOCC2)c2ccc([N+](=O)[O-])cc21 ?
-1

Short answer needed: outcome of this test for O=C1CC[C@@H](S(=O)(=O)c2ccccc2)[C@H](/C=C/c2ccccc2)O1 ?
-1

Assay outcome for CN(C)C(=O)CC(C(=O)O)c1c[nH]c2ccccc12 (configuration not stated) : what was it?
-1

Recorded test call requested for Cc1ccc2c(c1)CC1(Cc3ccccc3C1=O)C2=O (configuration not stated)
-1

Hi, sorry to bother you, what did the test record for CC(=O)Oc1ccc(-c2c(OC(C)=O)c(OC(C)=O)c(-c3ccc(OC(C)=O)c(OC(C)=O)c3)c(OC(C)=O)c2OC(C)=O)cc1 ?
-1

Recorded test call requested for CS[C@]12C(=O)C[C@@]3(C)[C@@H](CC[C@]3(O)C(=O)CO)[C@@H]1CCC1=CC(=O)CC[C@@]12C
-1

What did the test return for CCOC(=O)C1(C)CCC(C(C(=O)O)C(=O)O)CC1=O (configuration not stated) ?
-1

// outcome(item) with item = O=[N+]([O-])c1ccc(/C(=N/c2ccccc2)SS/C(=N\c2ccccc2)c2ccc([N+](=O)[O-])o2)o1
-1

Recorded test outcome, item FC(F)(F)c1ccc2nc(Sc3ccc4ccccc4c3)cnc2c1
-1

Fill in: this test's call for CC1=NN(c2nc(N)nc(CC#N)n2)C(C)(C)C1 is ___
-1

Hi, do you know how CN(C)CC1CC/C(=C\c2ccc3c(c2)OCO3)C1=O (configuration not stated) came out in this test?
-1
